FYI, the data here is from PubChem BioAssay (NCI).

# Tested on: OVCAR-4 ovarian
# assayNotes: NCI tumour cell line growth inhibition, 48 h
Kindly supply the reported TGI values for the records listed here.

>  <compound>
COc1ccc(N=Nc2c(N)nn(C)c2N)cc1

>  <TGI>
> 100 µM

$$$$
>  <compound>
C/C=C\C(CC(=O)OC)CC(=O)N(CCC1CN(S(=O)(=O)C(F)(F)F)c2ccccc21)Cc1ccc(OC)cc1OC (centres undefined)

>  <TGI>
> 100 µM

$$$$
>  <compound>
Cc1ccc(-c2nnc3s/c(=C\c4ccc(N(C)C)cc4)c(=O)n23)cc1

>  <TGI>
> 100 µM

$$$$
>  <compound>
Cc1ccc(OCCOCCOCCOCCOCCOc2ccc(C)n(O)c2=S)c(=S)n1O

>  <TGI>
49.5 µM

$$$$
>  <compound>
CN(C)c1ccccc1[CH2][Ga]([Cl])[CH2]c1ccccc1N(C)C

>  <TGI>
3.07 µM

$$$$
>  <compound>
O=C(O)CCN(CCCN(CCC(=O)O)CCC(=O)O)CCC(=O)O

>  <TGI>
> 100 µM

$$$$
>  <compound>
Cc1[nH]nc2ncc(C(=O)N3CCC[C@H]3c3ccc(Cl)cc3)cc12

>  <TGI>
> 100 µM

$$$$
>  <compound>
CC(C)OP(=O)(OC(C)C)C(=NCCN=C(NNc1ccccc1[N+](=O)[O-])P(=O)(OC(C)C)OC(C)C)NNc1ccccc1[N+](=O)[O-]

>  <TGI>
> 100 µM

$$$$

// field: TGI; key: COc1ccccc1NC(=O)CC(=O)N1N=C(c2ccccc2)C(N=Nc2ccc(Cl)cc2)C1=O (centres undefined) ; value = 56.6 µM
